# Test system: 598228-144-R-J1-PDC complex spheroids, viability;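 also: spheroids exposed to compounds for seven days before readout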
# test details: Anticancer human tumor 598228-144-R-J1-PDC patient-derived serous endometrial adenocarcinoma cell line growth inhibition [CLK]; active = viability on the fitted dose curve at most 10% of control; inactive = the rest
# experimental conditions: second compound 3.16 µM; first compound 0.000949 µM
Outcomes: active, inactive

molecule	class name
C=CC(=O)Nc1cc(Nc2nccc(-c3cn(C)c4ccccc34)n2)c(OC)cc1N(C)CCN(C)C + CN1CCN(c2cc(C(=O)Nc3cc4cc(-c5cnn(C)c5)ccc4cn3)ccn2)CC1	active
C=CC(=O)Nc1cc(Nc2nccc(-c3cn(C)c4ccccc34)n2)c(OC)cc1N(C)CCN(C)C + CNC(=O)c1ccc(Nc2nc(OC3CCCC3)c3c(-c4ccc5nc(C)oc5c4)c[nH]c3n2)c(OC)c1	inactive
CC(C)CC(NC(=O)C(Cc1ccccc1)NC(=O)c1cnccn1)B(O)O (centres undefined) + CN1CCN(c2cc(C(=O)Nc3cc4cc(-c5cnn(C)c5)ccc4cn3)ccn2)CC1	active
CC(C)CC(NC(=O)C(Cc1ccccc1)NC(=O)c1cnccn1)B(O)O (centres undefined) + CNC(=O)c1ccc(Nc2nc(OC3CCCC3)c3c(-c4ccc5nc(C)oc5c4)c[nH]c3n2)c(OC)c1	inactive

These data points were gathered from PubChem BioAssay AID2060614.
